assay: amyloid nucleation score (Sup35N fusion, yeast selection) (log enrichment); library NNK3; higher = more nucleation; inactive = no reads after selection;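 further: zero at mode of non-aggregating sequences after 7 days selection at 30°C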
assay_metric: amyloid nucleation score

DLISEKEQEPGRD :: 0.406
GPDYHKHYRTYLPRTAFVGF :: 1.27
WGTVMTLSCVALEVYFSLRV :: inactive
TLHVCIVLSPGRW :: inactive
WTTNLVNAYLDRHVHNLMPL :: inactive
VYNTGFLGPVSFSAGKFLML :: 0.943
VSSMYVVIHGV :: inactive
QTYCYKEMFLITERWIPHSP :: -0.155
NLCVYWYSWGRSWGDFVTGY :: 0.269
SIGTKLASCLYLKR :: inactive

# batch: return amyloid nucleation score for each of the 8 substances below
1. CFYVSLCGV
2. KCKFNWVCEVVR
3. EYSVRADPGREMNGEISAWV
4. RNFVEANAYSFRLVTVTLSM
5. RFVTSLYDMLSI
6. ISINYVPDMFDLRDYFTVIL
7. VVCLFRVRYRW
8. FCMGLHSWNSNGRFCAVCTY

Output:
[0.259, "inactive", "inactive", "inactive", "inactive", "inactive", 1.48, "inactive"]

Please give amyloid nucleation score, item by item, for the list that follows.
1. ICPWDIQRINMLMGRVDWLR
2. SLSNVGLANFLFSRPSLRSY
3. VSRCRVHKFTGYC
4. TVEQYWRNEREWF
5. AFQLVHSWSFVGGTRALAVT

Output:
1. inactive
2. inactive
3. -0.441
4. inactive
5. inactive

Each of the following entries comes with a recorded value; kindly state amyloid nucleation score for each.
1. LMRNRFFNPVSGTFTASIGQ
2. NWHDYSSGVGLKIRGECMNV
3. FLCLSKGTGVAISKMSQN
4. GCFNGNSYRSLPFWFMSTCL
5. NTRREDSGWTNLCFWCARN

Output:
1. -0.302
2. inactive
3. inactive
4. inactive
5. 2.01

###

experiment: amyloid nucleation score (Sup35N fusion, yeast selection) (log enrichment); library NNK3; higher = more nucleation; inactive = no reads after selection
assay_metric: amyloid nucleation score

Solved cases below.
KSWGLVHKCSSAFMFPKFCP :: inactive
MSSHFSSKAFGFHYGF :: inactive
SLYKYRIWCMVFVVYFSQSQ :: inactive
GPYNCFVH :: inactive
KDCQKNGWLSSTNLELLQCP :: inactive
MYFYYYGSRYYNNSDCLLSS :: inactive

Please state amyloid nucleation score for every substance in the list that follows.
1. TMTIDESTWVVSANMSYRMK
2. CVFPCMFLEFTMTDMKLYSS
3. AQSYSCFRNHFTDAVVCVFS
4. SCFAVCHYESRLVYVTYSFL
5. LFSGSHWCRDNMWSSGAIDA
6. SAYFAVY
7. YDCCMLHWIVFGGIVDGMCL

Output:
1.37
inactive
-0.496
inactive
inactive
inactive
inactive

Quick request: amyloid nucleation score for each listed item, please.
1. VYKWECKDRKYGWRYCAETW
2. LYHFANIFSFC
3. WQLAGYWLEWSIRPEGALDD
4. AYMCCYDAYTPRRSRCDWYI
5. GSTTCLYTSIPCCAGVLS
6. CQLRGEFDSVAVNNVCIAML

Output:
inactive
inactive
inactive
-0.402
0.449
inactive

// each substance listed below needs its amyloid nucleation score
1. QRFVSIFPGI
2. YGCFVPY

Output:
["inactive", "inactive"]
